Molecular target: Recombinant Human 17β-HSD1 (Homo sapiens, UniProt P14061)
Construct: made in house; host or cells: Sd9 (Sf9) insect cells, baculovirus (Bac to Bac Expression System)
Sequence (P14061 1-328): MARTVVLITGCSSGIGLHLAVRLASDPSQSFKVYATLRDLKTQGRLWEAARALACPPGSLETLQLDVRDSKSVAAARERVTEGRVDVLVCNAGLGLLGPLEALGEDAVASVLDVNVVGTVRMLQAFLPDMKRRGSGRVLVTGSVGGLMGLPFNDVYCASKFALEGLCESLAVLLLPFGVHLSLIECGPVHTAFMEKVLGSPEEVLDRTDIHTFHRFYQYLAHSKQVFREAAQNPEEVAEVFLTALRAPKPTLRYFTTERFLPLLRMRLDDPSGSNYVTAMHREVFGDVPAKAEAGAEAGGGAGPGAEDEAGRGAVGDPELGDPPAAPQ
Test: Inhibition of recombinant human 17β-HSD1 (conversion of 3H-estrone to estradiol, HPLC)
Type: biochemical
Details: inhibitor at 1 μM; 30 nM estrone, 1 mM NADPH, 30 min at RT; read-out: 17β-HDS1 Inhibition % at 1 μM
Quick rule: inhibition at 1 µM of at least 80% means met, below that means not met.

Determine whether this compound has inhibition at 1 µM no lower than 80%: Cc1cnc(NC(=O)CC[C@@H]2C[C@H](O)[C@@]3(C)CCC4c5ccc(O)c(NC(C)C)c5CCC4C23)s1 (some centres unmarked)
not met

Does inhibition at 1 µM meet or surpass 80% for Cc1cnc(NC(=O)CC[C@@H]2C[C@H](OC(=O)CCC(=O)O)[C@@]3(C)CCC4c5ccc(O)cc5CCC4C23)s1 (some centres unmarked) ?
met

Say whether Cc1cnc(NC(=O)CC[C@@H]2C[C@H](O)[C@@]3(C)CCC4c5ccc(O)c(NC(C)CO)c5CCC4C23)s1 (some centres unmarked) shows inhibition at 1 µM of 80% or more.
not met

Textbook exercise: given the entry CC(=O)Oc1ccc2c(c1)CCC1C2CC[C@@]2(C)C1[C@H](CCC(=O)Nc1ncc(C)s1)C[C@@]2(O)C#N (some centres unmarked) , state whether its inhibition at 1 µM is greater than or equal to 80%.
not met

Can Cc1cnc(NC(=O)CC[C@@H]2C[C@@](O)(C#N)[C@@]3(C)CCC4c5ccc(O)cc5CCC4C23)s1 (some centres unmarked) be said to have inhibition at 1 µM at or above 80%?
not met

Exam item: decide whether the reported inhibition at 1 µM for CC(=O)O[C@H]1C[C@@H](CCC(=O)Nc2ncc(C)s2)C2C3CCc4cc(O)ccc4C3CC[C@@]21C (some centres unmarked) is at least 80%.
not met

Hello, I need to know if Cc1cnc(NC(=O)CC[C@@H]2C[C@H](NCC(C)C)[C@@]3(C)CCC4c5cc(C(C)(C)C)c(O)cc5CCC4C23)s1 (some centres unmarked) [Compound 75b] has measured inhibition at 1 µM not below 80%. Thanks!
not met

I'd appreciate it if you could say whether COCCNC1C[C@@H](CCC(=O)Nc2ncc(C)s2)C2C3CCc4cc(O)c(C(C)(C)C)cc4C3CC[C@]12C (some centres unmarked) has inhibition at 1 µM at least equal to 80%.
not met

Dear colleague, could you confirm whether Cc1cnc(NC(=O)CC[C@@H]2C[C@@](O)(CC#N)[C@@]3(C)CCC4c5ccc(O)cc5CCC4C23)s1 (some centres unmarked) has inhibition at 1 µM at or above 80%?
not met

For this compound, is measured inhibition at 1 µM 80% or higher? Cc1cnc(NC(=O)CC[C@@H]2CC(O)[C@@]3(C)CCC4c5ccccc5CCC4C23)s1 (some centres unmarked)
not met

Textbook exercise: given the entry CO[C@H]1C[C@@H](CCC(=O)Nc2ncc(C)s2)C2C3CCc4c(cc(Br)c(O)c4Br)C3CC[C@@]21C (some centres unmarked) , state whether its inhibition at 1 µM is greater than or equal to 80%.
not met

Has Cc1cnc(NC(=O)CC[C@@H]2CC(NC(C)C)[C@@]3(C)CCC4c5ccc(O)cc5CCC4C23)s1 (some centres unmarked) a recorded inhibition at 1 µM greater than or equal to 80%?
met

Hi team, for Cc1cnc(NC(=O)CC[C@@H]2CC(NCCO)[C@@]3(C)CCC4c5ccc(O)cc5CCC4C23)s1 (some centres unmarked) , is the recorded inhibition at 1 µM at or above 80%?
met

Confirm if inhibition at 1 µM reported for the compound Cc1cnc(NC(=O)CC[C@@H]2C[C@@](O)(CC#N)[C@@]3(C)CCC4c5cc(Br)c(O)c(Br)c5CCC4C23)s1 (some centres unmarked) is 80% or above.
not met

Does inhibition at 1 µM meet or surpass 80% for COCCNC1C[C@@H](CCC(=O)Nc2ncc(C)s2)C2C3CCc4cc(O)ccc4C3CC[C@]12C (some centres unmarked) ?
met

Is the recorded value of inhibition at 1 µM equal to or greater than 80% for this compound? CCCC[C@]1(O)C[C@@H](CCC(=O)Nc2ncc(C)s2)C2C3CCc4cc(O)ccc4C3CC[C@@]21C (some centres unmarked)
met

Does inhibition at 1 µM meet or surpass 80% for Cc1cnc(NC(=O)CC[C@@H]2C[C@H](OP(=O)(O)O)[C@@]3(C)CCC4c5ccc(O)cc5CCC4C23)s1 (some centres unmarked) ?
not met

Record COc1ccc2c(c1)CCC1C2CC[C@@]2(C)C1[C@H](CCC(=O)Nc1ncc(C)s1)C[C@@H]2O (some centres unmarked) ; criterion: inhibition at 1 µM no lower than 80%. Met?
not met

Identify whether the reported inhibition at 1 µM of the following compound is 80% or greater: Cc1cnc(NC(=O)CC[C@@H]2C[C@H](O)[C@@]3(C)CCC4c5ccc(O)cc5CCC4C23)s1 (some centres unmarked)
met

Hi team, for Cc1cnc(NC(=O)CC[C@@H]2C[C@H](O)[C@@]3(C)CCC4c5cc(Br)c(O)c(Br)c5CCC4C23)s1 (some centres unmarked) , is the recorded inhibition at 1 µM at or above 80%?
met

Please tell me: is the compound Cc1cnc(NC(=O)CC[C@@H]2CC(NCCN(C)C)[C@@]3(C)CCC4c5ccc(O)cc5CCC4C23)s1 (some centres unmarked) at or over 80% in terms of inhibition at 1 µM?
not met

Hey, just so you know, these numbers are from patent US9850272B2.
